Source: paper PMC7459852

System: S. mansoni schistosomula
Experiment: Schistosomula screens (Roboworm, phenotype and motility)
Type: cell-based, Schistosoma mansoni
Conditions: Schistosoma mansoni, 72 h, dose response titrations (10 - 0.625 µM), read-out: Schistosomula EC50 Phenotype
pEC50: −log10 of the molar value.
reported_property: pEC50

c1ccc(Nc2nc(Nc3ccccc3)nc(N3CCNCC3)n2)cc1 ... 5.49
CC(=O)Nc1ccc(S(=O)(=O)N2CCN(c3nc(N4CCCCC4)nc(N4CCCCC4)n3)CC2)cc1 ... 5.46

(a) Cc1ccc(Nc2nc(N3CCNCC3)nc(N3CCN(c4ccccc4)CC3)n2)cc1
(b) c1ccc(CNc2nc(Nc3ccccc3)nc(N3CCNCC3)n2)cc1
Smaller pEC50 value, a vs b ? The response must carry the label of the picked entry.
b
(b: 5.34, a: 5.80)

(1) c1ccc(Nc2nc(N3CCNCC3)nc(N3CCOCC3)n2)cc1
(2) Cc1ccccc1Nc1nc(Nc2ccccc2C)nc(N2CCNCC2)n1
(3) Cc1ccc(Nc2nc(N3CCNCC3)nc(N3CCOCC3)n2)cc1
Please produce an ascending ranking of these compounds based on pEC50. Return value: ordered labels per request.
2, 1, 3

(A) c1ccc(Nc2nc(N3CCCC3)nc(N3CCNCC3)n2)cc1
(B) Cc1ccc(Nc2nc(C3CCCCC3)nc(N3CCNCC3)n2)cc1
Endpoint returns whichever of A and B has the numerically higher pEC50. Let me know the label of the one you choose.
B
(B: 5.51, A: 5.25)

====

System: HepG2 cells
Experiment: MTT cytotoxicity assay on HepG2 cells
Assay type: cell-based, Human
Conditions: MTT, 24 h; three dose response titrations (200 - 1 µM)
reported_property: CC50 (µM)
Numeric answer only, unit µM assumed.

Any idea what CC50 came out for Cc1ccc(Nc2nc(C3CCCCC3)nc(N3CCNCC3)n2)cc1 [Compound 23] on HepG2 cells?
6.73

====

Assay: MTT cytotoxicity assay on HepG2 cells
Format: cell-based, Human
Details: human, HepG2 cells, MTT, 24 h; three dose response titrations (200 - 1 µM)
reported_property: CC50 at 24 h (µM)
Dear colleague, please return just the value in µM, with no unit written.

c1ccc(Nc2nc(Nc3ccccc3)nc(N3CCNCC3)n2)cc1 ... 14.9
c1ccc(CNc2nc(Nc3ccccc3)nc(N3CCNCC3)n2)cc1 ... 11
c1ccc(Nc2nc(N3CCCC3)nc(N3CCNCC3)n2)cc1 ... 13.7
Cc1ccc(Nc2nc(N3CCNCC3)nc(N3CCOCC3)n2)cc1 ... 23.9
c1ccc(Nc2nc(N3CCNCC3)nc(N3CCOCC3)n2)cc1 ... 93.5

Fill in the blank: the reported CC50 at 24 h of `Cc1ccccc1Nc1nc(Nc2ccccc2C)nc(N2CCNCC2)n1` is ____.
17.9

====

The following compounds are listed with their measured pEC50 values.
Test system: S. mansoni schistosomula
Test: Schistosomula screens (Roboworm, phenotype and motility)
Assay type: cell-based, Schistosoma mansoni
Details: Schistosoma mansoni, 72 h, dose response titrations (10 - 0.625 µM), read-out: Schistosomula EC50 Phenotype
pEC50: −log10 of the molar value.

Please review the entries below; each comes with its answer.
C1CN(c2nc(N3CCOCC3)nc(N3CCOCC3)n2)CCN1 [Compound 10] ... < 4.30
O=C(c1ccc(Cl)cc1)N1CCN(c2nc(N3CCCCC3)nc(N3CCCCC3)n2)CC1 [Compound 19] ... < 4.30
O=S(=O)(c1ccc(Cl)cc1)N1CCN(c2nc(N3CCCCC3)nc(N3CCCCC3)n2)CC1 [Compound 18] ... < 4.30

For c1ccc2sc(N3CCN(c4nc(N5CCOCC5)nc(N5CCOCC5)n4)CC3)nc2c1 [Compound 11] , what is its reported pEC50?
< 4.30

Try C1CCN(c2nc(N3CCCC3)nc(N3CCNCC3)n2)C1 [Compound 17] next.
< 5.00

Now consider Cc1ccccc1Nc1nc(N2CCNCC2)nc(N2CCOCC2)n1 [Compound 14] .
< 5.00

# repeat for O=[N+]([O-])c1ccc2nc(N3CCN(c4nc(N5CCOCC5)nc(N5CCOCC5)n4)CC3)sc2c1 [Compound 21]
< 4.30
